Attribution: patent US20190106487A1

Exercise: for every item that follows, state its recorded primary supernatant functional assay (% inh.), NF-kB luciferase reporter.
# system: T1, human IL-1RAcP on 293T/17-FR cells (human, UniProt Q9NPH3 21-570)
# T1 sequence (looked up): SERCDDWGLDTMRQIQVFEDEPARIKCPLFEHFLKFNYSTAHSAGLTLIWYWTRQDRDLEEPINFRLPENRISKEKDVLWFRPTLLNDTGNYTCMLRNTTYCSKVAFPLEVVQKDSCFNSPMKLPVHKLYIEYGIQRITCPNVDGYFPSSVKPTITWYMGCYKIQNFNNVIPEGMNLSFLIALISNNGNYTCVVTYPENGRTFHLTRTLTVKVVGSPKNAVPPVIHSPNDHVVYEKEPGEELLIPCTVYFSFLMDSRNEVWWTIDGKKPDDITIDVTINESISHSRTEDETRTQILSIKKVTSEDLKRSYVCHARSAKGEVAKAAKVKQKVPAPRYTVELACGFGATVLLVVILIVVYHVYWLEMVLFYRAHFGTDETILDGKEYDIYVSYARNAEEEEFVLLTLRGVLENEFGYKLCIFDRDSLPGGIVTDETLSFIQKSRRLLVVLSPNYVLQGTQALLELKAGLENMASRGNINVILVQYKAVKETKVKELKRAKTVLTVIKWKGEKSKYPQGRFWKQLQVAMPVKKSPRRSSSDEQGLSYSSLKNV
# assay: cell-based or functional assay
Answers are plain numbers, in %.

// below: answered binders
binder	observed
P013.S.02.B.D05 (antibody, V domains shown, rabbit monoclonal antibody; also called P013.A.00086.B09) VH: QQQLVESGGGLVKPGASLTLTCKASGFSFSSGYYMCWVRQAPGKGLEWIACIGMGSGKTYYASWAKGRFTISKTSSTTVTLQMTSLTAADTATYFCARKDGSGNEHYNLWGPGTLVTVSS VL: DIVMTQTPASVEAAVGGTVTIRCQASQSISSYLAWYQRKPGQPPKVLIYKASTLASGVSSRFKGSGSGTEYTLTISDLESADAATYYCQQGYASSGVDNVFGGGTEVVVK	42
P013.S.01.B.H05 (antibody, V domains shown, rabbit monoclonal antibody; also called P013.A.00109.F08) VH: LEQSGGGAEGGLVKPGGSLELCCKASGFSLSNSYWICWVRQAPGKGLEWIGCIYVGSSGSTYYASWVNGRFTLSRDIDQSTGCLQLNSLTAADTAIYYCARDGATSTSGHLFELWGQGTLVTVSS VL: ALVMTQTPSPVSAAVGGTVTINCQASEDIYSNLAWFQQKPGQPPKLLIYRASTLASGVPSRFSGSGSGTEFTLTISGVQSDDAATYYCLGIYTYISADGSLYNAFGGGTEVVVK	95
P013.S.01.B.G02 (antibody, V domains shown, rabbit monoclonal antibody; also called P013.A.00085.B11) VH: QSVEESGGRLVTPGTPLTLTCTVSGFSLSSYYMSWVRQAPGKGLEWIGYIYAAGPITYYATWAKGRFTISKTSTTVDLKITSPTTEDTATYFCVRDGSGSGTYGYNGMDLWGPGTLVTVSS VL: AYDMTQTPASVEAAVGGTVNIKCQASQSISNWLAWYQQKPGQRPKLLIYRASTLASGVSSRFKGSGSGTQFTLTISGVESADAATYYCQQGASTTDVDNVFGGGTEVVVK	71
P013.S.02.B.D01 (antibody, V domains shown, rabbit monoclonal antibody; also called P013.A.00141.G02) VH: LEQSGGGAEGGLVKPGGSLELCCKASGFSLSSNYWMCWVRQAPGKGLEWIGCIYAGSSDSTYYASWVNGRFTLSRDIDQSTGCLQLNSLTAADTAMYYCASPGYGGYGYYGLWGQGTLVTVSS VL: ALVMTQTPSPVSAAVGGTVTINCQASEDIYSNLAWFQQKPGQPPKLLIYDASTLASGVPSRFSGSGSGTEFTLTISGLQSDDAATYYCLGVYTYISPDGTDNAFGGGTEVVVK	85
P013.S.01.B.D05 (antibody, V domains shown, rabbit monoclonal antibody; also called P013.A.00085.G03) VH: EQSGGGAEGGLVKPGGSLELYCKASGFSLSSDAWICWVRQAPGKGLEWIGCIYAGSASNTYYATWVNGRFTLSRDIAQSTGCLQLNSLTAADTAMYYCARDRGYDDYGDITRLDLWGQGTLVTVSS VL: ALVLTQTPSPVSAAVGGTVTINCQASEDIYSNLAWFQQKPGQPPKLLIYRASTLASGVPSRFSGSGSGTEFTLTISGLQSDDAATYYCLGVYTYLSDLFFVFGGGTEVVVK	93

Okay, now this binder:
In plain terms, P013.S.02.B.E01 (antibody, V domains shown, rabbit monoclonal antibody; also called P013.A.00013.G07) VH: QSLEESGGRLVTPGTPLTLTCTVSGFSLSIYGMGWVRQAPGEGLEWIGSISSGGSTYYATWAKGRFTISKTSSTTLDLKITSPTTEDTATYFCVRSDGYTNGDYDTYFNLWGQGTLVTVS VL: DIVMTQTPASVSEPVGGTVTIRCQASQSISSWLSWYQQKPGQPPKLLIYQASALASGVSSRFIGSGYGTEFTLTISGVQSEDAATYYCQCTYGIGSNSDYGVAFGGGTEVVVK has a documented primary supernatant functional assay (% inh.), NF-kB luciferase reporter of 79
